// data source = paper PMC11440591

Test system: wild-type Zaire EBOV Mayinga 1976 strain (EBOV May)
Assay: microbe, parasite or virus in culture
Conditions: Zaire ebolavirus, Vero C1008, 72 h, read-out: EC50 (EBOV May)
measurementLabel: EC50 (nM)
Kindly provide the numeric value in nM only, without the unit symbol.

Request: Reported EC50 for O=C(Nc1ccccc1)c1ccc(-c2ccc(OC3CCNCC3)cc2)s1 : what is it?
Result: 190

Request: Reported EC50 for O=C(Nc1ccccc1)c1ccc(-c2ccccc2OC2CCNCC2)s1 : what is it?
Result: 1500

Request: Reported EC50 for O=C(Nc1ccccc1)c1ccc(-c2cccc(OC3CCNCC3)c2)o1 : what is it?
Result: 9260

----------
Assay: in vitro
Details: CD-1, mouse, microsomes, pH 7.4
measurementLabel: half-life at 1 h, 10 µM (min)
Kindly provide the numeric value in min only, without the unit symbol.

Request: Reported half-life at 1 h, 10 µM for O=C(Nc1ccccc1)c1ccc(-c2ccc(OC3CCNCC3)cc2)s1 : what is it?
Result: 29

----------
Assay: in vivo
Settings: male, BALB/c, mouse, po, 50 mg/kg, Tmax
measurementLabel: Tmax (h)
Kindly provide the numeric value in h only, without the unit symbol.

Request: Reported Tmax for O=C(Nc1ccccc1)c1ccc(-c2ccc(OC3CCNCC3)cc2)s1 [compound 57] : what is it?
Result: 4

----------
Entries with reported SI (CC50/EC50) on wild-type Zaire EBOV Mayinga 1976 strain (EBOV May)
Keep it simple and answer with nothing but the number.

Request: Reported SI (CC50/EC50) for O=C(NCCC1CCN(Cc2ccccc2)CC1)c1ccc(-c2ccccc2OC2CCNCC2)o1 : what is it?
Result: 9.5

Request: Reported SI (CC50/EC50) for O=C(Nc1cccc(Cl)c1)c1ccc(-c2ccc(OC3CCNCC3)cc2)s1 : what is it?
Result: 21.8

Request: Reported SI (CC50/EC50) for O=C(NCCc1ccccc1)c1ccc(-c2cccc(OC3CCNCC3)c2)s1 : what is it?
Result: 2.0

Request: Reported SI (CC50/EC50) for O=C(Nc1ccc(Cl)cc1)c1ccc(-c2ccccc2OC2CCNCC2)s1 : what is it?
Result: 18

Request: Reported SI (CC50/EC50) for O=C(NCCc1ccccc1)c1ccc(-c2ccccc2OC2CCNCC2)o1 : what is it?
Result: 4.5

Request: Reported SI (CC50/EC50) for O=C(Nc1cccc(Cl)c1)c1ccc(-c2cccc(OC3CCNCC3)c2)s1 : what is it?
Result: 8.0

Request: Reported SI (CC50/EC50) for O=C(NCCc1ccccc1)c1ccc(-c2ccccc2OC2CCNCC2)s1 : what is it?
Result: 36.9

----------
Test: in vivo
Conditions: male, BALB/c, mouse, ip, 10 mg/kg, Cmax
For each of the molecules below, state its Cmax at 24 h.
Kindly provide the numeric value in ng/mL only, without the unit symbol.

Request: Reported Cmax at 24 h for O=C(Nc1ccccc1)c1ccc(-c2ccc(OC3CCNCC3)cc2)s1 [compound 57] : what is it?
Result: 1040

Request: Reported Cmax at 24 h for O=C(Nc1ccccc1)c1ccc(-c2ccccc2OC2CCNCC2)s1 [compound 1] : what is it?
Result: 122

----------
Target: hERG potassium channel (Homo sapiens)
Sequence (Q12809 whole entry): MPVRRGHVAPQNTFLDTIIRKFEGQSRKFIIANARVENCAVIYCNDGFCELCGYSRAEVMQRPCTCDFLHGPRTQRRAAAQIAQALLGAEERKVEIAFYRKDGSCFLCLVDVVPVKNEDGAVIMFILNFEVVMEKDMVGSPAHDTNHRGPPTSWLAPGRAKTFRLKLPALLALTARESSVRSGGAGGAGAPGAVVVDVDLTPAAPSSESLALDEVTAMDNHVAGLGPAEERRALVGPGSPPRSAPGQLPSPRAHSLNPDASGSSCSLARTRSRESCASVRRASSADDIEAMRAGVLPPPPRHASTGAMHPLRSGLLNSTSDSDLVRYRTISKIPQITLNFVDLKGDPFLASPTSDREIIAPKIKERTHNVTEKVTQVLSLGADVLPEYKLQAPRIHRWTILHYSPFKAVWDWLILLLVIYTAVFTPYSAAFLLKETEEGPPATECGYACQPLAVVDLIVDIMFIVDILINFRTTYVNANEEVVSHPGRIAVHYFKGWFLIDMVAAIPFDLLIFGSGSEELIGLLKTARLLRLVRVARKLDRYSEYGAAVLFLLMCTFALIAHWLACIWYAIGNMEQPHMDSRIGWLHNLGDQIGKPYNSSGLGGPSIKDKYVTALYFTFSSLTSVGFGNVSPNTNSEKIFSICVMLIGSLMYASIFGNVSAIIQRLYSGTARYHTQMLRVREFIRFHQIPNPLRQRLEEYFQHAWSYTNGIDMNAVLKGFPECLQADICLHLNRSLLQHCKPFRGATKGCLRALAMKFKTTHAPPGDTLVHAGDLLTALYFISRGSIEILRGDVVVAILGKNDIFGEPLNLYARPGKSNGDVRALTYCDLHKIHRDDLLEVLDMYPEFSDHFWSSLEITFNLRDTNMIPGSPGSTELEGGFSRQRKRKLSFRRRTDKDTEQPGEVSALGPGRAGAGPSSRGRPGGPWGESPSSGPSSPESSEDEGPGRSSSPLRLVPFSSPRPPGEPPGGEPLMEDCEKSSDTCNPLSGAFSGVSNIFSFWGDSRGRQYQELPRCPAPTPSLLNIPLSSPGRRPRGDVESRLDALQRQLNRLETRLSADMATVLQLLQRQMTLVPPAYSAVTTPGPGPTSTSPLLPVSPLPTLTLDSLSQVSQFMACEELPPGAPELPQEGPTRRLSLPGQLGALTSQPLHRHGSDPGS
Assay: cell-based
measurementLabel: IC50

Request: Reported IC50 for O=C(Nc1ccccc1)c1ccc(-c2ccc(OC3CCNCC3)cc2)s1 [compound 57] : what is it?
Result: ~50 µM

----------
Test: in vitro
Details: chlorocebus sabaeus
For each of the compounds below, state its CC50 at 24 h.
Remember to follow the number with its unit.

Request: Reported CC50 at 24 h for O=C(Nc1ccc(Cl)cc1)c1ccc(-c2ccccc2OC2CCNCC2)s1 : what is it?
Result: 27.9 µM

Request: Reported CC50 at 24 h for O=C(NCCC1CCN(Cc2ccccc2)CC1)c1ccc(-c2ccccc2OC2CCNCC2)o1 : what is it?
Result: 90 µM

Request: Reported CC50 at 24 h for O=C(NCCc1ccccc1)c1cnc(-c2ccccc2OC2CCNCC2)s1 : what is it?
Result: 91 µM

Request: Reported CC50 at 24 h for O=C(Nc1ccccc1)c1cnc(-c2ccc(OC3CCNCC3)cc2)s1 : what is it?
Result: 50 µM

Request: Reported CC50 at 24 h for O=C(NCCC1CCN(Cc2ccccc2)CC1)c1ccc(-c2ccccc2O)s1 : what is it?
Result: 70 µM

----------
Assay: in vitro
Conditions: human, microsomes, pH 7.4
measurementLabel: half-life at 1 h, 10 µM (h)
Kindly provide the numeric value in h only, without the unit symbol.

Request: Reported half-life at 1 h, 10 µM for O=C(Nc1ccccc1)c1ccc(-c2ccc(OC3CCNCC3)cc2)s1 : what is it?
Result: 2.17

----------
Experiment: in vitro
Conditions: chlorocebus sabaeus
measurementLabel: CC50

Request: Reported CC50 for O=C(Nc1ccc(N2CCOCC2)cc1)c1ccc(-c2ccccc2O)s1 : what is it?
Result: > 100 µM

Request: Reported CC50 for O=C(c1ccc(-c2ccccc2O)s1)N1CCCC1 : what is it?
Result: > 200 µM

Request: Reported CC50 for O=C(Nc1ccccc1)c1ccc(-c2ccccc2OC2CCN(Cc3ccccc3)CC2)s1 : what is it?
Result: > 200 µM

Request: Reported CC50 for O=C(NCCc1ccccc1)c1ccc(-c2ccc(O)cc2)s1 : what is it?
Result: > 200 µM

Request: Reported CC50 for O=C(c1ccc(-c2ccccc2)s1)N1CCCC1 : what is it?
Result: > 100 µM

Request: Reported CC50 for O=C(NCCC1CCN(Cc2ccccc2)CC1)c1ccc(-c2ccccc2)s1 : what is it?
Result: > 100 µM

Request: Reported CC50 for O=C(Nc1cccc(Cl)c1)c1ccc(-c2ccccc2)s1 : what is it?
Result: > 100 µM

Request: Reported CC50 for O=C(Nc1cccc(Cl)c1)c1ccc(-c2cccc(O)c2)s1 : what is it?
Result: > 200 µM

Request: Reported CC50 for O=C(NCCC1CCN(Cc2ccccc2)CC1)c1cnc(-c2ccc(OC3CCNCC3)cc2)s1 : what is it?
Result: > 100 µM

Request: Reported CC50 for O=C(Nc1ccc(Cl)cc1)c1ccc(-c2cccc(O)c2)s1 : what is it?
Result: > 200 µM

Request: Reported CC50 for O=C(Nc1ccc(Cl)cc1)c1ccc(-c2ccccc2)s1 : what is it?
Result: > 100 µM

Request: Reported CC50 for O=C(c1ccc(-c2ccccc2OC2CCNCC2)s1)N1CCCC1 : what is it?
Result: > 100 µM

Request: Reported CC50 for O=C(NCCc1ccccc1)c1ccc(-c2ccccc2)s1 : what is it?
Result: > 100 µM

Request: Reported CC50 for O=C(Nc1ccc(N2CCOCC2)cc1)c1ccc(-c2ccccc2)s1 : what is it?
Result: > 100 µM

Request: Reported CC50 for O=C(Nc1ccccc1)c1ccc(-c2ccccc2)s1 : what is it?
Result: > 100 µM

Request: Reported CC50 for O=C(NCCc1ccccc1)c1ccc(-c2cccc(O)c2)s1 : what is it?
Result: > 200 µM

Request: Reported CC50 for O=C(Nc1ccccc1)c1ccc(-c2ccccc2O)s1 : what is it?
Result: > 100 µM

Request: Reported CC50 for CC(C)(C)OC(=O)N1CCC(Oc2ccccc2-c2ccc(C(=O)Nc3cccc(Cl)c3)s2)CC1 : what is it?
Result: > 100 µM

Request: Reported CC50 for O=C(NCCC1CCN(Cc2ccccc2)CC1)c1ccc(-c2ccc(OC3CCNCC3)cc2)s1 : what is it?
Result: > 100 µM

Request: Reported CC50 for O=C(Nc1cccc(Cl)c1)c1ccc(-c2ccc(O)cc2)s1 : what is it?
Result: > 200 µM

Request: Reported CC50 for O=C(NCCC1CCN(Cc2ccccc2)CC1)c1ccc(-c2ccc(O)cc2)s1 : what is it?
Result: > 100 µM

Request: Reported CC50 for O=C(Nc1cccc(Cl)c1)c1ccc(-c2ccccc2O)s1 : what is it?
Result: > 100 µM

Request: Reported CC50 for O=C(Nc1ccc(Cl)cc1)c1ccc(-c2ccccc2O)s1 : what is it?
Result: > 100 µM

Request: Reported CC50 for O=C(Nc1ccc(Cl)cc1)c1ccc(-c2ccc(O)cc2)s1 : what is it?
Result: > 200 µM

Request: Reported CC50 for O=C(NCCc1ccccc1)c1ccc(-c2ccccc2O)s1 : what is it?
Result: > 100 µM

----------
Assay: in vivo
Details: male, BALB/c, mouse, po, 50 mg/kg, Cmax
measurementLabel: Cmax at 24 h (ng/mL)
Kindly provide the numeric value in ng/mL only, without the unit symbol.

Request: Reported Cmax at 24 h for O=C(Nc1ccccc1)c1ccc(-c2ccc(OC3CCNCC3)cc2)s1 [compound 57] : what is it?
Result: 5600

----------
measurementLabel: SI (CC50/EC50)
Keep it simple and answer with nothing but the number.

Request: # returns recorded SI (CC50/EC50) (system: wild-type Zaire EBOV Mayinga 1976 strain (EBOV May)) for O=C(Nc1cccc(Cl)c1)c1ccc(-c2ccccc2OC2CCNCC2)s1 [compound 48]
Result: 17.1

Request: # returns recorded SI (CC50/EC50) (system: wild-type Zaire EBOV Mayinga 1976 strain (EBOV May)) for O=C(NCCC1CCN(Cc2ccccc2)CC1)c1cnc(-c2ccc(OC3CCNCC3)cc2)s1 [compound 79]
Result: 12.8

Request: # returns recorded SI (CC50/EC50) (system: wild-type Zaire EBOV Mayinga 1976 strain (EBOV May)) for O=C(Nc1ccccc1)c1ccc(-c2cccc(OC3CCNCC3)c2)o1 [compound 103]
Result: 1.5

Request: # returns recorded SI (CC50/EC50) (system: wild-type Zaire EBOV Mayinga 1976 strain (EBOV May)) for O=C(Nc1ccc(Cl)cc1)c1ccc(-c2ccc(OC3CCNCC3)cc2)s1 [compound 58]
Result: 4.13

Request: # returns recorded SI (CC50/EC50) (system: wild-type Zaire EBOV Mayinga 1976 strain (EBOV May)) for O=C(NCCc1ccccc1)c1cnc(-c2ccccc2OC2CCNCC2)s1 [compound 97]
Result: 5.8

Request: # returns recorded SI (CC50/EC50) (system: wild-type Zaire EBOV Mayinga 1976 strain (EBOV May)) for O=C(Nc1ccc(Cl)cc1)c1ccc(-c2cccc(OC3CCNCC3)c2)s1 [compound 54]
Result: 8.9

Request: # returns recorded SI (CC50/EC50) (system: wild-type Zaire EBOV Mayinga 1976 strain (EBOV May)) for O=C(NCCC1CCN(Cc2ccccc2)CC1)c1ccc(-c2ccccc2OC2CCNCC2)s1 [compound 51]
Result: 6.6

Request: # returns recorded SI (CC50/EC50) (system: wild-type Zaire EBOV Mayinga 1976 strain (EBOV May)) for O=C(Nc1ccc(Cl)cc1)c1ccc(-c2ccccc2OC2CCNCC2)o1 [compound 99]
Result: 7.9

Request: # returns recorded SI (CC50/EC50) (system: wild-type Zaire EBOV Mayinga 1976 strain (EBOV May)) for O=C(Nc1ccc(N2CCOCC2)cc1)c1ccc(-c2ccccc2OC2CCNCC2)s1 [compound 50]
Result: 2.8
